Protocol Details: qHTS of pediatric cancer cell lines to identify multiple opportunities for drug repurposing: Confirmatory screen for TC32 cells (AID 1347118);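 also: cells exposed to compound for 48 h before the read; nearly all actives have a fitted effect of over 65% in size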; also: potency is read from the fitted curve at half-maximal effect
Test Context: TC32 Ewing sarcoma cells viability qHTS; series mostly up to 45.9 µM
Results filed as inconclusive are left out. Activity calls are given as the source filed them. Calls follow the shape of the dose curve; as a rule, active = well fitted cell-killing curve with a large enough effect; inconclusive = small, poorly fitted or top-dose-only effect; inactive = no such curve, though single readings can be large or run the other way.
Measure: Potency

{"columns": ["Compound", "Experimental Value"],
 "data": [
  ["COc1cccc2cc(-c3nc(C4CCC(C(=O)O)CC4)n4ncnc(N)c34)[nH]c12 (stereo not given)", "inactive"],
  ["COc1cc2nccc(Oc3ccc(NC(=O)NC4CC4)c(Cl)c3)c2cc1C(N)=O", "14.7 µM (active)"],
  ["Nc1nc2[nH]cc(CCc3ccc(C(=O)N[C@@H](CCC(=O)O)C(=O)O)cc3)c2c(=O)[nH]1", "0.465 µM (active)"],
  ["CCC(C)n1ncn(-c2ccc(N3CCN(c4ccc(OC[C@H]5CO[C@](Cn6cncn6)(c6ccc(Cl)cc6Cl)O5)cc4)CC3)cc2)c1=O (stereo not given in full)", "3.29 µM (active)"],
  ["Cn1cnc2c(F)c(Nc3ccc(Br)cc3Cl)c(C(=O)NOCCO)cc21", "inactive"],
  ["Nc1nc2ccc(OC(F)(F)F)cc2s1", "inactive"],
  ["CCC(C)(C)C(=O)O[C@H]1C[C@@H](C)C=C2C=C[C@H](C)[C@H](CC[C@@H]3C[C@@H](O)CC(=O)O3)[C@H]21", "16.5 µM (active)"],
  ["Nc1nc2c(ncn2COCCO)c(=O)[nH]1", "inactive"],
  ["COc1cc(Nc2ncc3c(n2)-c2ccc(Cl)cc2C(c2c(F)cccc2OC)=NC3)ccc1C(=O)O", "0.147 µM (active)"],
  ["Oc1cccc(-c2nc(N3CCOCC3)c3oc4ncccc4c3n2)c1", "0.427 µM (active)"]
]}
